Tested on: Rattus norvegicus
METHOD DESCRIPTION: Metabolic stability in rat assessed as 8-Methoxy-6R-(-)-[4-(2-piperidin-1-ylethoxy)phenyl]-11,12-dihydro-5H-6,13-dioxabenzo[3,4]cyclohepta-[1,2-a]naphthalen-2-ol Tmax at 10 mg/kg, po administered as single dose by LC-MS/MS analysis
Format: ADME, organism-based
Parameters: dose 10 mg/kg, route oral
ASSAY CONTEXT: in vivo

{"STRUCTURE SMILES": "COc1ccc2c(c1)O[C@H](c1ccc(OCCN3CCCCC3)cc1)C1=C2CCOc2cc(O)ccc21", "Tmax [h]": 6}

* * *

Test system: Rattus norvegicus
METHOD DESCRIPTION: Uterotropic activity in rat assessed as stimulation of estrone-induced uterine weight at 1 mg/kg, po QD after 3 days
Assay type: functional
ASSAY CONTEXT: Uterus, 72 h

{"STRUCTURE SMILES": "CN(C)CCOc1ccc([C@@H]2Oc3ccccc3C3=C2c2ccc(O)cc2OCC3)cc1", "stimulation at 1 mg/kg / %": 70}
{"STRUCTURE SMILES": "CN(C)CCOc1ccc([C@@H]2Oc3cc(O)ccc3C3=C2c2ccc(O)cc2OCC3)cc1", "stimulation at 1 mg/kg / %": 100}
{"STRUCTURE SMILES": "CCN(CC)CCOc1ccc([C@@H]2Oc3ccccc3C3=C2c2ccc(O)cc2OCC3)cc1", "stimulation at 1 mg/kg / %": 100}
{"STRUCTURE SMILES": "CC/C(=C(\\c1ccccc1)c1ccc(OCCN(C)C)cc1)c1ccccc1", "stimulation at 1 mg/kg / %": 109}
{"STRUCTURE SMILES": "CC(C)N(CCOc1ccc([C@@H]2Oc3cc(O)ccc3C3=C2c2ccc(O)cc2OCC3)cc1)C(C)C", "stimulation at 1 mg/kg / %": 80}

* * *

TGT: UniProt Q92731
Sequence (Q92731 whole entry): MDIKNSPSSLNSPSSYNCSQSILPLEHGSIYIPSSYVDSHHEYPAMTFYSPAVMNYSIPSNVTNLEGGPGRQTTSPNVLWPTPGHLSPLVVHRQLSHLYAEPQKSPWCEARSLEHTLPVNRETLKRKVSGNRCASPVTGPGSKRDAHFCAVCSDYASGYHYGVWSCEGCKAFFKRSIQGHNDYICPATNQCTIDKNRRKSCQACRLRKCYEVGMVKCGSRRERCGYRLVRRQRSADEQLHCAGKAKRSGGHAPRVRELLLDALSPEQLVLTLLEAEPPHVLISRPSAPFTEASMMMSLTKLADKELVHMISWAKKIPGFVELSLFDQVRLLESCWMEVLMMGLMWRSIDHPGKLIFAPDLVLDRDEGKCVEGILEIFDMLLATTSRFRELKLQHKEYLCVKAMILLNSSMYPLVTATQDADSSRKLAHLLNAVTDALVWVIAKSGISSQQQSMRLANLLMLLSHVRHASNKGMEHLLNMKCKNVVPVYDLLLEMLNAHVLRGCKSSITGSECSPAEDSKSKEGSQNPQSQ
METHOD DESCRIPTION: Inhibition of fluormone ES2 binding to estrogen receptor beta after 1 hr by fluorescence polarization assay
pIC50: −log10 of the molar value.
Classify as follows. Reported pIC50 greater than or equal to 7: MET. Reported pIC50 below: NOT MET.

{"STRUCTURE SMILES": "Oc1ccc2c(c1)O[C@@H](c1ccc(OCCN3CCCCCC3)cc1)C1=C2CCOc2ccccc21", "CLASS LABEL": "MET"}
{"STRUCTURE SMILES": "CN1CCN(CCOc2ccc([C@@H]3Oc4cc(O)ccc4C4=C3c3ccc(O)cc3OCC4)cc2)CC1", "CLASS LABEL": "NOT MET"}
{"STRUCTURE SMILES": "Oc1ccc2c(c1)O[C@H](c1ccc(OCCCN3CCCCC3)cc1)C1=C2CCOc2cc(O)ccc21", "CLASS LABEL": "MET"}

* * *

Species on record: Rattus norvegicus
METHOD DESCRIPTION: animal or person
Assay type: functional
ASSAY CONTEXT: Uterus, 72 h, route oral

{"STRUCTURE SMILES": "CCN(CC)CCOc1ccc([C@@H]2Oc3cc(F)ccc3C3=C2c2ccc(O)cc2OCC3)cc1", "UNIT NAME": "%", "inhibition in vivo at 1 mg/kg": 11}
{"STRUCTURE SMILES": "O=C1CCC(=O)N1CCCOc1ccc([C@@H]2Oc3cc(O)ccc3C3=C2c2ccc(O)cc2OCC3)cc1", "UNIT NAME": "%", "inhibition in vivo at 1 mg/kg": 0}
{"STRUCTURE SMILES": "Oc1ccc2c(c1)OCCC1=C2[C@@H](c2ccc(OCCN3CCCCC3)cc2)Oc2ccccc21", "UNIT NAME": "%", "inhibition in vivo at 1 mg/kg": 130}
{"STRUCTURE SMILES": "O=C(O)CCOc1ccc([C@H]2Oc3cc(O)ccc3C3=C2c2ccc(O)cc2OCC3)cc1", "UNIT NAME": "%", "inhibition in vivo at 1 mg/kg": 0}
{"STRUCTURE SMILES": "CC(C)N(CCOc1ccc([C@@H]2Oc3cc(O)ccc3C3=C2c2ccc(O)cc2OCC3)cc1)C(C)C", "UNIT NAME": "%", "inhibition in vivo at 1 mg/kg": 30}

* * *

The entries below come with measured pIC50 values attached.
TGT: UniProt Q92731
pIC50: −log10 of the molar value.
MEASURED PROPERTY: pIC50

{"STRUCTURE SMILES": "CN1CCN(CCOc2cccc([C@@H]3Oc4cc(O)ccc4C4=C3c3ccc(O)cc3OCC4)c2)CC1", "TGT": "UniProt Q92731", "MEASURED PROPERTY": "pIC50", "VALUE MEASURED": "< 6.00"}
{"STRUCTURE SMILES": "CN1CCN(CCOc2cccc([C@H]3Oc4cc(O)ccc4C4=C3c3ccc(O)cc3OCC4)c2)CC1", "TGT": "UniProt Q92731", "MEASURED PROPERTY": "pIC50", "VALUE MEASURED": "< 6.00"}
{"STRUCTURE SMILES": "COc1ccc2c(c1)O[C@@H](c1ccc(OCCN3CCCCC3)cc1)C1=C2CCOc2cc(OC)ccc21", "TGT": "UniProt Q92731", "MEASURED PROPERTY": "pIC50", "VALUE MEASURED": "< 5.00"}

* * *

TGT: Estrogen receptor (Homo sapiens, UniProt P03372)
Sequence (P03372 whole entry): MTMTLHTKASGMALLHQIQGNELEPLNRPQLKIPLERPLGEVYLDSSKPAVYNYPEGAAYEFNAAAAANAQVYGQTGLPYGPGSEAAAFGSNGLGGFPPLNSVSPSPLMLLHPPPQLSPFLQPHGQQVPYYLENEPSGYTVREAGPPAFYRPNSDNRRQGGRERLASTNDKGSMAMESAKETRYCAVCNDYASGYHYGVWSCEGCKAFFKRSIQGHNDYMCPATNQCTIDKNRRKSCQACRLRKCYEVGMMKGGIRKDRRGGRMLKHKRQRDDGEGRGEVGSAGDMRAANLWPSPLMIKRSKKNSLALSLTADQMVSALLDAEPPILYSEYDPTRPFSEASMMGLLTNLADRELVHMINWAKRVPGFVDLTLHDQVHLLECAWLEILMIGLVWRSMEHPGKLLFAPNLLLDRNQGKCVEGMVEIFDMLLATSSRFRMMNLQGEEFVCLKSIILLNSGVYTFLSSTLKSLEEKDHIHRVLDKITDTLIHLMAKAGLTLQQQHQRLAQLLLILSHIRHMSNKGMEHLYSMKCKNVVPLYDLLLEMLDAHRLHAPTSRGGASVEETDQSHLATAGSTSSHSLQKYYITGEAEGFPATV
METHOD DESCRIPTION: Antagonist activity at estrogen receptor in human Ishikawa cells assessed as 17-beta-estradiol-induced alkaline phosphatase activity after 3 days by chemiluminescence assay
Format: functional, cell-based
The entries below come with measured IC50 values attached.
MEASURED PROPERTY: IC50 (nM)

{"COMPOUND": "Oc1ccc2c(c1)O[C@H](c1cccc(OCCN3CCSCC3)c1)C1=C2CCOc2cc(O)ccc21", "COMPARATIVE SIGN": ">", "VALUE MEASURED": 10000}
{"COMPOUND": "O=C1CCC(=O)N1CCOc1ccc([C@H]2Oc3cc(O)ccc3C3=C2c2ccc(O)cc2OCC3)cc1", "COMPARATIVE SIGN": ">", "VALUE MEASURED": 10000}
{"COMPOUND": "Oc1ccc2c(c1)OCCC1=C2[C@H](c2ccc(OCCN3CCCCC3)cc2)Oc2ccccc21", "COMPARATIVE SIGN": "=", "VALUE MEASURED": 150}
{"COMPOUND": "Oc1ccc2c(c1)O[C@@H](c1ccc(OCCN3CCCCCC3)cc1)C1=C2CCOc2ccccc21", "COMPARATIVE SIGN": "=", "VALUE MEASURED": 144}
{"COMPOUND": "CC(C)N(CCOc1ccc([C@@H]2Oc3cc(O)ccc3C3=C2c2ccc(O)cc2OCC3)cc1)C(C)C", "COMPARATIVE SIGN": "=", "VALUE MEASURED": 35}
{"COMPOUND": "Oc1ccc2c(c1)OC(c1ccc(OCCN3CCCCC3)cc1)C1=C2CCOc2cc(O)ccc21 (configuration not stated)", "COMPARATIVE SIGN": "=", "VALUE MEASURED": 8}
{"COMPOUND": "CN1CCN(CCOc2cccc([C@@H]3Oc4cc(O)ccc4C4=C3c3ccc(O)cc3OCC4)c2)CC1", "COMPARATIVE SIGN": ">", "VALUE MEASURED": 10000}

* * *

TGT: Estrogen receptor (Homo sapiens, UniProt P03372)
METHOD DESCRIPTION: Antagonist activity at estrogen receptor in human Ishikawa cells assessed as 17-beta-estradiol-induced alkaline phosphatase activity after 3 days by chemiluminescence assay
Type: functional, cell-based
The entries below come with measured IC50 values attached.

{"COMPOUND": "OCCCOc1ccc(C2Oc3cc(O)ccc3C3=C2c2ccc(O)cc2OCC3)cc1 (stereo not drawn)", "TGT": "Estrogen receptor (Homo sapiens, UniProt P03372)", "IC50": "> 10 µM"}
{"COMPOUND": "O=C(O)CCOc1ccc([C@@H]2Oc3cc(O)ccc3C3=C2c2ccc(O)cc2OCC3)cc1", "TGT": "Estrogen receptor (Homo sapiens, UniProt P03372)", "IC50": "> 10 µM"}
{"COMPOUND": "Oc1ccc2c(c1)O[C@H](c1cccc(OCCN3CCCCC3)c1)C1=C2CCOc2cc(O)ccc21", "TGT": "Estrogen receptor (Homo sapiens, UniProt P03372)", "IC50": "> 10 µM"}

Data credit: ChEMBL document CHEMBL1153760
